biological target: DNA topoisomerase 2-beta (Homo sapiens); test: Activity of TOP2B in human K562 cells assessed as poisoning activity at 100 uM after 1 hr by TARDIS assay; format: cell-based
Calls of active or inactive are those of the source. No cut-off for these calls is given here.
Quantity Kind: Activity

Compound	Result
COc1cc([C@@H]2c3cc4c(cc3[C@@H](OCc3cn(-c5ccc(O)cc5)nn3)[C@H]3COC(=O)[C@H]23)OCO4)cc(OC)c1O	Active
COc1cc([C@@H]2c3cc4c(cc3[C@@H](O[C@@H]3O[C@@H]5CO[C@@H](C)O[C@H]5[C@H](O)[C@H]3O)[C@H]3COC(=O)[C@H]23)OCO4)cc(OC)c1O [ETOPOSIDE]	Active
COC(=O)CCCCCn1cc(CO[C@@H]2c3cc4c(cc3[C@@H](c3cc(OC)c(O)c(OC)c3)[C@H]3C(=O)OC[C@@H]32)OCO4)nn1	Active
COc1cc([C@@H]2c3cc4c(cc3[C@@H](OCc3cn(CCCN(C)C)nn3)[C@H]3COC(=O)[C@H]23)OCO4)cc(OC)c1O	Active

Moving on to the next compound.
Exercise: Sample COc1cc([C@@H]2c3cc4c(cc3[C@@H](n3cc(CN(C)C)nn3)[C@H]3COC(=O)[C@H]23)OCO4)cc(OC)c1O — what was its Activity?
Key: Active
